Parameter PBM E-score: see the listing below.
Molecular target: Yer064c (UniProt P40041)
Sequence: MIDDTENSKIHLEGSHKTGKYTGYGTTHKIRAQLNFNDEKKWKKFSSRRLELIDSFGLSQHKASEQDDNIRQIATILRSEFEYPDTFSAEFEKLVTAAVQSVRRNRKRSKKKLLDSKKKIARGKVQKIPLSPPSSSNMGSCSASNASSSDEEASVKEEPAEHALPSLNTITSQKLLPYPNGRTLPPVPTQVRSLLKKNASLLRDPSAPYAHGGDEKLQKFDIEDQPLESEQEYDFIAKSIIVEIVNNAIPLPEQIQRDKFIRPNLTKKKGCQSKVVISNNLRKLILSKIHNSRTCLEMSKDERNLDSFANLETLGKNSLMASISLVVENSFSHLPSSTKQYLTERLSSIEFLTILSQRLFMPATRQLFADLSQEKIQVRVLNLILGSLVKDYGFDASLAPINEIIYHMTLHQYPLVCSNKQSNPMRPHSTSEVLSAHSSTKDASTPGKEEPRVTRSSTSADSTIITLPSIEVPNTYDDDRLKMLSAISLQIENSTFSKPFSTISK
Assay: PBM E-score (8-mer binding enrichment) (E-score (-0.5 to 0.5)); higher = stronger / more preferred TF binding
Conditions: protein concentration: 200 nM; construct: GST-full length
Whole data set: some 33,000 sequences, median “E-score (-0.5 to 0.5)” near -0.036, cut for the highest 2% near 0.37. The sample holds the highest values, similar sequences and a random draw of the others, so the mix is not that of the screen.
reported-metric: PBM E-score

[[record]]
sequence_code = "AGTAGTCG"
reported = 0.381

[[record]]
sequence_code = "CGTAGTCA"
reported = 0.483

[[record]]
sequence_code = "TCGTCAGA"
reported = -0.15

[[record]]
sequence_code = "AGGTAGTG"
reported = -0.0767

[[record]]
sequence_code = "ACGGCCTC"
reported = -0.163

[[record]]
sequence_code = "GGTAGTCA"
reported = 0.479

[[record]]
sequence_code = "AGCGAGGC"
reported = -0.282

[[record]]
sequence_code = "AGACCAGG"
reported = -0.166

[[record]]
sequence_code = "GAGTCAGA"
reported = 0.472

[[record]]
sequence_code = "AGTAGTAA"
reported = 0.156

[[record]]
sequence_code = "GCGTCAGA"
reported = -0.116

[[record]]
sequence_code = "AGGTAGTC"
reported = 0.407

[[record]]
sequence_code = "AGTAGTTA"
reported = 0.112

[[record]]
sequence_code = "AGGTAGTA"
reported = 0.0729

[[record]]
sequence_code = "AGTAGTAG"
reported = 0.00559

[[record]]
sequence_code = "CCTCTGAA"
reported = -0.0251

[[record]]
sequence_code = "AGCGGTCA"
reported = -0.0499

[[record]]
sequence_code = "CGTAGTAA"
reported = -0.0636

[[record]]
sequence_code = "CGGTAGTC"
reported = 0.409

[[record]]
sequence_code = "GGTAGTAA"
reported = 0.0578

[[record]]
sequence_code = "GGTAGTGA"
reported = 0.0671

[[record]]
sequence_code = "GGAATTCA"
reported = -0.0346


###

Molecular target: Yer064c (UniProt P40041)
Sequence: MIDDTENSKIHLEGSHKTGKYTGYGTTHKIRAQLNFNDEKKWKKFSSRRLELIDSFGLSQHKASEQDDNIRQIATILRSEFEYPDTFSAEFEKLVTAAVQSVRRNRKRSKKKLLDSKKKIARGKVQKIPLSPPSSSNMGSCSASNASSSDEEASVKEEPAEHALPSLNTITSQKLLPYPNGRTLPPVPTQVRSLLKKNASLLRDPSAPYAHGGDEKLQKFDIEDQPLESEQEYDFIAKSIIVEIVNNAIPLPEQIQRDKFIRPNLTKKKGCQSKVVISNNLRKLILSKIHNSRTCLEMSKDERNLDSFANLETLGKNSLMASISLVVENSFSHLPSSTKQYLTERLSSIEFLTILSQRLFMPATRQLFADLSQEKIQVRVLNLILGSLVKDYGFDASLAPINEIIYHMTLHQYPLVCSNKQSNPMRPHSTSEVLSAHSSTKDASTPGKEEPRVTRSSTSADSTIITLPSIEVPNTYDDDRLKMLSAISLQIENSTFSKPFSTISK
Assay: PBM E-score (8-mer binding enrichment) (E-score (-0.5 to 0.5)); higher = stronger / more preferred TF binding
Settings: protein concentration: 200 nM; construct: GST-full length
Whole data set: some 33,000 sequences, median “E-score (-0.5 to 0.5)” near -0.036, cut for the highest 2% near 0.37. What follows is part of a selection rich in the highest values, with near analogues and random picks from the rest.
Classification by PBM E-score | ranges: LOW (below -0.02), MEDIUM (-0.02 to below 0.2), HIGH (0.2 or more)

[[record]]
sequence_code = "AAAAGTCT"
assigned_class = "MEDIUM"

[[record]]
sequence_code = "ACTCATGG"
assigned_class = "HIGH"

[[record]]
sequence_code = "TAAAGTCA"
assigned_class = "HIGH"

[[record]]
sequence_code = "AAAAGTCA"
assigned_class = "HIGH"

[[record]]
sequence_code = "CTGGCTAA"
assigned_class = "HIGH"

[[record]]
sequence_code = "AATGCGTA"
assigned_class = "MEDIUM"

[[record]]
sequence_code = "AACTAGTC"
assigned_class = "HIGH"

[[record]]
sequence_code = "ACTGCGGA"
assigned_class = "LOW"

[[record]]
sequence_code = "ACTCATGA"
assigned_class = "HIGH"

[[record]]
sequence_code = "GGAACCAA"
assigned_class = "LOW"

[[record]]
sequence_code = "GACTAGTA"
assigned_class = "HIGH"

[[record]]
sequence_code = "CCCTCCAA"
assigned_class = "LOW"

[[record]]
sequence_code = "TACTAGTA"
assigned_class = "HIGH"

[[record]]
sequence_code = "AATCACCC"
assigned_class = "HIGH"

[[record]]
sequence_code = "CGGTTGAC"
assigned_class = "MEDIUM"

[[record]]
sequence_code = "ACAAGGGA"
assigned_class = "LOW"

[[record]]
sequence_code = "AATCATGA"
assigned_class = "HIGH"

[[record]]
sequence_code = "CCTCATGC"
assigned_class = "LOW"

[[record]]
sequence_code = "GGACTCGA"
assigned_class = "MEDIUM"

[[record]]
sequence_code = "GCGTTGCC"
assigned_class = "LOW"

[[record]]
sequence_code = "GTTTATTA"
assigned_class = "MEDIUM"

[[record]]
sequence_code = "GAAAGTCA"
assigned_class = "HIGH"

[[record]]
sequence_code = "CAGTGGTC"
assigned_class = "MEDIUM"

[[record]]
sequence_code = "CAAAGTCA"
assigned_class = "HIGH"

[[record]]
sequence_code = "AGCTAGAT"
assigned_class = "LOW"

[[record]]
sequence_code = "AACCCATA"
assigned_class = "MEDIUM"

[[record]]
sequence_code = "CAAAGTCC"
assigned_class = "LOW"

[[record]]
sequence_code = "GGGTGGGA"
assigned_class = "LOW"

[[record]]
sequence_code = "AATCAAGT"
assigned_class = "HIGH"

[[record]]
sequence_code = "CACTAGTC"
assigned_class = "HIGH"

[[record]]
sequence_code = "AGAAACAG"
assigned_class = "LOW"

[[record]]
sequence_code = "ATCACCCA"
assigned_class = "MEDIUM"

[[record]]
sequence_code = "ACTCATGC"
assigned_class = "HIGH"

[[record]]
sequence_code = "CATCATGA"
assigned_class = "HIGH"

[[record]]
sequence_code = "GAAGTGCC"
assigned_class = "LOW"

[[record]]
sequence_code = "GACCTGTA"
assigned_class = "LOW"

[[record]]
sequence_code = "GATCATGC"
assigned_class = "MEDIUM"

[[record]]
sequence_code = "CGCTGGTA"
assigned_class = "LOW"

[[record]]
sequence_code = "GATGTGGA"
assigned_class = "MEDIUM"

[[record]]
sequence_code = "CAAAGTCG"
assigned_class = "MEDIUM"

[[record]]
sequence_code = "CGCTCTAG"
assigned_class = "LOW"

[[record]]
sequence_code = "CCATCCTA"
assigned_class = "MEDIUM"

[[record]]
sequence_code = "AGATTGAT"
assigned_class = "MEDIUM"

[[record]]
sequence_code = "GCTCTCCA"
assigned_class = "LOW"

[[record]]
sequence_code = "CGTCGAGA"
assigned_class = "MEDIUM"

